- target_of_assay: Torsin-1A-interacting protein 1 (Homo sapiens)
- measurement_notes: compound microarray binding of lysate hLAP1 – cell lysate, small-molecule microarray, COS7 lysate, 635/667 nm fluorescence, primary screen (AID 1116)
- protocol_conditions: 635 nm fluorescence, higher = more signal
measured_property: composite z-score

- molecule: "O=C(NCc1ccccc1)[C@@H]1c2ccccc2C(=O)N(Cc2cc(C(F)(F)F)cc(C(F)(F)F)c2)[C@H]1c1ccc(CO)cc1"
  result_value: 0.517
- molecule: "COc1ccc(C(O)C2C=CC3C(=O)N(C)C(=O)C3N2N(c2ccccc2)c2ccccc2)cc1 (stereo not drawn)"
  result_value: 0.74
- molecule: "C=CCOC(=O)[C@H]1[C@@H]2C(=O)O[C@@H](c3ccccc3)[C@@H](c3ccccc3)N2[C@@H](c2ccc(OCCOC(=O)[C@H]3C[C@H]4C(=O)N[C@@H](CC(C)C)C(=O)N4[C@H]3c3ccc(O)cc3)cc2)[C@]12C(=O)Nc1ccccc12"
  result_value: 1.78
- molecule: "C=CCC(OC(C)=O)[C@@H]1[C@@H](N(Cc2ccc(-c3cccc(C(F)(F)F)c3)o2)C(=O)Cc2ccc(F)cc2)c2cc(OCCCO)ccc2N1C(=O)Cc1ccc2ccccc2c1 (stereo partly drawn)"
  result_value: -0.016
- molecule: "O=C1C2C=CC(C(O)C3CCCCC3)N(n3cnnc3)C2C(=O)N1Cc1ccccc1 (stereo not drawn)"
  result_value: 0.598
- molecule: "COc1ccc([Si](C)(C)[C@H]2[C@H](CCO)O[C@@]3(C(=O)N(Cc4cccc(N(C=O)c5ccccc5)c4)c4ccccc43)[C@@H]2C)cc1"
  result_value: 0.124
- molecule: "CCCC=C(CCC)[C@@H](NC(=O)c1ccc(C(F)(F)F)cc1)c1ccc(C(F)(F)F)cc1"
  result_value: 0.926
- molecule: "O=C1[C@H]2C=C(I)[C@H](C[C@@H]2c2ccccc2)[C@@]12CO2"
  result_value: 0.126
- molecule: "COC(=O)[C@@]1(Cc2ccc(OC)cc2)[C@H]2c3cc(C(=O)N(C)C)[nH]c3C[C@H]2CN1C(=O)c1ccccc1"
  result_value: -0.223
- molecule: "COCCOC(=O)N1C(=O)[C@@]2(c3cc(C#CCC(C(=O)OC)C(=O)OC)ccc31)[C@H](C(=O)Nc1nc3ccccc3s1)[C@H]1C(=O)O[C@H](c3ccccc3)[C@H](c3ccccc3)N1[C@@H]2c1ccc(O)cc1"
  result_value: 0.706
- molecule: "CCOC(=O)C[C@H]1[C@H](OC(=O)c2ccccc2-c2ccccc2)[C@@H](NC(=O)C2CCCCC2)c2cc(OCCCO)ccc2N1C(=O)c1ccc2ccccc2n1"
  result_value: -0.0006
- molecule: "O=C1c2ccccc2[C@@]2(Cc3ccccc3N(Cc3ccccc3)C2=O)[C@H](c2ccc(CO)cc2)N1Cc1ccccc1Cl"
  result_value: -0.881
- molecule: "O=C1O[C@@H](c2ccccc2)[C@@H](c2ccccc2)N2[C@@H](c3ccc(OCCO)cc3)[C@]3(C(=O)Nc4ccc(C#CC5(O)CCCCCC5)cc43)[C@@H](C(=O)Nc3nc4ccccc4s3)[C@H]12"
  result_value: 1.34
- molecule: "COC(=O)[C@@]1(Cc2ccccc2)[C@H]2c3cc(C(=O)N(C)C)n(CCO)c3C[C@H]2CN1C(=O)c1ccccc1"
  result_value: 0.952
- molecule: "COc1ccc(C(O)C2C=CC3C(=O)NC(=O)C3N2Nc2ccc(Cl)cc2Cl)c2ccccc12 (stereo not drawn)"
  result_value: 0.693
- molecule: "COc1ccc([Si](C)(C)[C@@H]2[C@@H](CC(=O)N3CCC[C@H]3CO)O[C@]3(C(=O)N(Cc4cccc(N5CCCCC5=O)c4)c4ccccc43)[C@H]2C)cc1"
  result_value: 0.191
- molecule: "O=C(NCC(O)CO)C1N=C(c2ccc(OCCCO)cc2)N(c2ccccc2)O1 (stereo not drawn)"
  result_value: 1.35
- molecule: "C[C@]1(C(=O)O)c2ccccc2C(=O)N(Cc2cc(F)cc(C(F)(F)F)c2)[C@H]1c1ccc(CO)cc1"
  result_value: -0.0131
- molecule: "COC(=O)[C@H](Cc1ccc(O)cc1)N[C@@H](/C=C/C1CC1)[C@H](O)Cc1ccccc1"
  result_value: 0.108
- molecule: "CN1C(=O)C2C(C3CC3)C=C3CN(Cc4cccc(Cl)c4)[C@@H]([C@@H](O)Cc4ccccc4)C3C2C1=O (stereo partly drawn)"
  result_value: 0.648
- molecule: "[N-]=[N+]=Nc1ccccc1C[C@@]1(C(=O)NCc2ccccc2)N=C(c2ccc(OCCCO)cc2)O[C@@H]1c1ccccc1N=[N+]=[N-]"
  result_value: 1.19
- molecule: "CCCNC(=O)[C@@]1(c2ccc([N+](=O)[O-])cc2)CC(=O)N(C(C)C)[C@@H]1c1ccc(CO)cc1"
  result_value: -0.824
- molecule: "COCCOC(=O)N1C(=O)[C@@]2(c3cc(C#CCC(C(=O)OC)C(=O)OC)ccc31)[C@H](C(=O)Nc1nc3ccccc3s1)[C@H]1C(=O)O[C@H](c3ccccc3)[C@H](c3ccccc3)N1[C@@H]2c1ccc(OCCO)cc1"
  result_value: 1.38
- molecule: "CC(C)(C)OC(=O)CC[C@@]1(C(=O)NCCN2CCOCC2)N=C(c2ccc(OCCCO)cc2)O[C@@H]1c1ccccc1CN=[N+]=[N-]"
  result_value: 0.462
- molecule: "CCCCCCc1nc(Cc2cc(OC)c(OC)c(OC)c2)cc2c1[Si](C(C)C)(C(C)C)O[C@H]2c1ccccc1"
  result_value: -0.142
- molecule: "CCOC(=O)C1=C[C@@H](C(C)(C)C)N(S(=O)(=O)c2ccc(C)cc2)[C@H]1c1ccc(C#N)cc1"
  result_value: 0.918
- molecule: "CC=CC(O)C1C=CC2C(=O)NC(=O)C2N1Nc1ccc(Cl)cc1Cl (stereo not drawn)"
  result_value: 0.685
- molecule: "COC(=O)[C@]1(Cc2ccccc2)N=C(c2ccc(OCCCO)cc2)O[C@@H]1c1ccccc1CN=[N+]=[N-]"
  result_value: 1.11
